Biological target: GST-TMEM106B (truncated, comprising amino acids 122-210 of SEQ ID NO:1) (Homo sapiens, UniProt Q9NUM4)
Sequence (Q9NUM4 122-210): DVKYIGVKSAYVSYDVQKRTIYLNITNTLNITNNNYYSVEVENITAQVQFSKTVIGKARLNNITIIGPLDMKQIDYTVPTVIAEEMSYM
Experiment: Pre-mix epitope binning of anti-TMEM106B antibodies (Carterra / Lake Pharma)
Assay type: binding
Conditions: epitope bin number; pre-mix binning on truncated GST-TMEM106B
Parameter: Binding Community/Bin. Scope: all listed entries.

molecule	Binding Community/Bin
TM-86: anti-TMEM106B monoclonal antibody; VH SEQ ID NO: 491, VL SEQ ID NO: 526 (antibody, V domains shown, Variable Heavy Chain -- TM-86; Variable Light Chain -- TM-86) VH: EVQLQQSGPVLVKPGASVKMSCKASGYTFTDYYIHWVKQSHGRSLEWIGVISPYNDNTNYNQKFKGKATLTVDKSSSTAYMELNSLTSEDSAVYYCVRTYYSNYFDYWGQGTTLTVSS VL: DIVMTQSPSSLSVSAGEKVTMSCKSSQSLLNSGNQKNYLAWHQQRPGQPPKLLIYGASTRESGVPDRFTGSGSGTEFTLTISSVQAEDLAVYYCQNDHSYPLTFGAGTKLELK	4

From here, focus on the item given below.
Problem: // returns reported Binding Community/Bin for input TM-3: anti-TMEM106B monoclonal antibody; CDR-H1-3 SEQ ID NO: 4, 37, 80; CDR-L1-3 SEQ ID NO: 122, 162, 186 (antibody, V domains shown) VH: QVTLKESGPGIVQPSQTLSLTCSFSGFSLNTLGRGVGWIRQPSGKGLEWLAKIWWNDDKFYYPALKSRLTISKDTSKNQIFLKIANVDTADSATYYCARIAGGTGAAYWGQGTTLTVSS VL: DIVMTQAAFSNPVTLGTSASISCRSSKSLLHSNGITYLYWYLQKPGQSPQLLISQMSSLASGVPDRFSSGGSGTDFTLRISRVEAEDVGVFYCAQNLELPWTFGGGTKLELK
Solution: 2
